# System: 9L cells
# assay_method_text: Cell culture survival study, 9L cells
# Format: cell-based, rat
# reported_conditions: Rattus norvegicus, 4 h, 9L, 4 hrs drug exposure, curves of FIG. 1 (MTX) / FIG. 3a (EDX); read-out: ED50 (the source's name)
reported_endpoint: pEC50
Field pEC50 (float): negative decimal logarithm of the concentration in molar.

CCC(Cc1cnc2nc(N)nc(N)c2n1)c1ccc(C(=O)N[C@@H](CCC(=O)O)C(=O)O)cc1 (some centres unmarked) [EDX, Edatrexate]	5.92

**Query** Recorded pEC50 of CN(Cc1cnc2nc(N)nc(N)c2n1)c1ccc(C(=O)N[C@@H](CCC(=O)O)C(=O)O)cc1 , please.
**Result** 5.54
